condition-description: 298.15 K; 101.33 kPa; Liquid
observation-type: mass density (kg/m3)

>>> data_value("CCCC(=O)OC [methyl butanoate]")
892.16
>>> data_value("CCCCCC(=O)OC [methyl hexanoate]")
879.47
>>> data_value("CC#N")
776.62
>>> data_value("CCCCC(=O)OC [methyl pentanoate]")
884.8

---

experiment-notes: refractive index (Na D-line) (dimensionless)
condition-description: 298.15 K; 101.33 kPa; Liquid; Standard Abbe refractometry
observation-type: refractive index

>>> data_value("CCCCC(=O)OC [methyl pentanoate]")
1.3971
>>> data_value("CC#N [acetonitrile]")
1.3418
>>> data_value("CCCCCC(=O)OC [methyl hexanoate]")
1.4048
>>> data_value("CCCC(=O)OC [methyl butanoate]")
1.3847
